Molecular target: Human complement C1s enzyme (Homo sapiens, UniProt P09871)
Construct: purified from human serum, Complement Technology, Inc
Sequence (P09871 438-688 limits assumed): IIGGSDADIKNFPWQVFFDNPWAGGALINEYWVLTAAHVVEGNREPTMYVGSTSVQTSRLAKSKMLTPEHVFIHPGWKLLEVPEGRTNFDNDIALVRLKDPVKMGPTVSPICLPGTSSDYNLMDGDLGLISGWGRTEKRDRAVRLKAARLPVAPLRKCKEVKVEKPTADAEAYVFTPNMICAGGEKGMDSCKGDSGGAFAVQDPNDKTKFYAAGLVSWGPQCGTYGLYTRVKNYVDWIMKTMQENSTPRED
Sequence (P09871 16-437 partner limits assumed): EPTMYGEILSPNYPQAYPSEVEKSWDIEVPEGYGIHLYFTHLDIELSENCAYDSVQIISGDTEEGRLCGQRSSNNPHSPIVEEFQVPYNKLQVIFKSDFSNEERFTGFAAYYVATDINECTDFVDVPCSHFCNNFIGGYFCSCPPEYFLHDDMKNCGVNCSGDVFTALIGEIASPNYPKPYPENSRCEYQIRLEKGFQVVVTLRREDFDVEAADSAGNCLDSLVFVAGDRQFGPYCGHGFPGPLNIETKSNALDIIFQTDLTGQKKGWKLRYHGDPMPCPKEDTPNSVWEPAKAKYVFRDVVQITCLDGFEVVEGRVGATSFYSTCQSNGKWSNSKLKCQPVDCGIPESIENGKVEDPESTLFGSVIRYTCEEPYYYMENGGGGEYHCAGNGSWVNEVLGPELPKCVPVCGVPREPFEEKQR
Experiment: Human C1s enzyme assay
Conditions: human complement C1s enzyme 1.16 nM, substrate Z-L-Lys-SBzl, A405; read-out: IC50 (Stars)
pIC50: −log10 of the molar value.
Items are presented alongside their recorded pIC50.

Compound | Tested On | Result
Cc1ncc(NC(=O)c2coc(-c3ccccc3)n2)c(=O)n1CC(=O)NCc1cc2cnccc2[nH]1 [Compound 414] | Human complement C1s enzyme (Homo sapiens, UniProt P09871) | > 7.00
O=C(Cn1c(-c2ccccc2)cnc(NCc2ccc(Oc3ccccc3)cc2)c1=O)NCc1cc2cnccc2[nH]1 [Compound 63] | Human complement C1s enzyme (Homo sapiens, UniProt P09871) | > 7.00
O=C(Cn1c(-c2ccccc2)ncc(NC(=O)c2ccc(Oc3ccc(F)cc3)cc2)c1=O)NCc1cc2cnccc2[nH]1 [Compound 52] | Human complement C1s enzyme (Homo sapiens, UniProt P09871) | > 7.00
O=C(Cn1c(-c2ccccc2)ncc(NCc2cc3ccc2CCc2ccc(cc2)CC3)c1=O)NCc1cc2cnccc2[nH]1 [Compound 43] | Human complement C1s enzyme (Homo sapiens, UniProt P09871) | < 6.00
O=C(Cn1c(-c2ccc(S(F)(F)(F)(F)F)cc2)ncc(NCc2ccc3c(c2)-c2ccccc2C3(F)F)c1=O)NCc1cc2cnccc2[nH]1 [Compound 255] | Human complement C1s enzyme (Homo sapiens, UniProt P09871) | > 7.00

Recorded pIC50 of O=C(Cn1c(-c2ccccc2)ncc(NCCCc2ccc(C3(F)COC3)cc2)c1=O)NCc1cc2cnccc2[nH]1 [Compound 116] , please.
> 7.00

Recorded pIC50 of O=C(Cn1c(-c2ccccc2)ncc(NC(=O)c2ccc(-c3ccccc3)s2)c1=O)NCc1ccc(Cl)cc1 [Compound 256] , please.
< 6.00

These data points were gathered from patent US20260184707A1.
